The substances listed here are annotated with their Cp (crossing point, measure for the amplification efficiency).
System: factor V DNA
measurement.notes: Real time PCR of factor V DNA with modified FRET donor probes (crossing point)
Format: biochemical
condition: LIGHTCYCLER 1.2, 106 copies of plasmid, 200 nM FRET probes, 640 nm channel
Strand notation (5' to 3'): a small letter for the sugar, then the base; units joined by * are phosphorothioate-linked, units joined directly phosphodiester-linked; [ ] holds rarer units or linkages, { } end groups; capitals alone tell only the bases. [PNAc] = P=N-pPh-NAc phosphoramidate mimetic linkage (p1); {Fluorescein} = fluorescein label; d = 2'-deoxy (DNA)
// keep it numeric: no unit symbol after the value

Record excerpt, results attached:
Annotate the substance 5′ AATACCTGTATTCCTCGCCTGTC-fluorescein-3′ (ref): unmodified fluorescein FRET donor probe SEQ ID NO: 4, used as a reference (DNA dAdAdTdAdCdCdTdGdTdAdTdTdCdCdTdCdGdCdCdTdGdTdC-{Fluorescein}) [reference compound] with its measured Cp (crossing point, measure for the amplification efficiency).
22.11

Supply Cp (crossing point, measure for the amplification efficiency) value. Item: 5′ Ap1Ap1Tp1Ap1Cp1Cp1Tp1Gp1Tp1Ap1Tp1TCCTCGCCTGTC-fluorescein-3′: Example 4 fluorescein probe SEQ ID NO: 4, multiply modified; p1 is a P = N-pPh-NAc mimetic (DNA dA[PNAc]dA[PNAc]dT[PNAc]dA[PNAc]dC[PNAc]dC[PNAc]dT[PNAc]dG[PNAc]dT[PNAc]dA[PNAc]dT[PNAc]dTdCdCdTdCdGdCdCdTdGdTdC-{Fluorescein})
21.40

***
Entry 5′ Ap1ATACCTGTATTCCTCGCCTGTC fluorescein-3′: Example 4 fluorescein probe SEQ ID NO: 4; p1 is a P = N-pPh-NAc mimetic (DNA dA[PNAc]dAdTdAdCdCdTdGdTdAdTdTdCdCdTdCdGdCdCdTdGdTdC-{Fluorescein}) needs its Cp (crossing point, measure for the amplification efficiency) filled in; supply it.
22.51

Give recorded Cp (crossing point, measure for the amplification efficiency). 5′ AATACCTGTATTCCTCGCCTGTp1C fluorescein-3′: Example 4 fluorescein probe SEQ ID NO: 4; p1 is a P = N-pPh-NAc mimetic (DNA dAdAdTdAdCdCdTdGdTdAdTdTdCdCdTdCdGdCdCdTdGdT[PNAc]dC-{Fluorescein})
22.61

Tell us which Cp (crossing point, measure for the amplification efficiency) value is on record for 5′ AATACCTGp1TATTCCTCp1GCCTGTC-fluorescein-3′: Example 4 fluorescein probe SEQ ID NO: 4, two-fold modified; p1 is a P = N-pPh-NAc mimetic (DNA dAdAdTdAdCdCdTdG[PNAc]dTdAdTdTdCdCdTdC[PNAc]dGdCdCdTdGdTdC-{Fluorescein})
22.26

Please look at this substance and report its Cp (crossing point, measure for the amplification efficiency): 5′ AATACCTGTATTp1Cp1Cp1Tp1Cp1Gp1Cp1Cp1Tp1Gp1Tp1C-fluorescein-3′: Example 4 fluorescein probe SEQ ID NO: 4, multiply modified; p1 is a P = N-pPh-NAc mimetic (DNA dAdAdTdAdCdCdTdGdTdAdTdT[PNAc]dC[PNAc]dC[PNAc]dT[PNAc]dC[PNAc]dG[PNAc]dC[PNAc]dC[PNAc]dT[PNAc]dG[PNAc]dT[PNAc]dC-{Fluorescein})
21.91

Please report Cp (crossing point, measure for the amplification efficiency) for the following substance: 5′ Ap1Ap1Tp1ACCTGTATp1Tp1Cp1CTCGCCTp1Gp1Tp1C-fluorescein-3′: Example 4 fluorescein probe SEQ ID NO: 4, multiply modified; p1 is a P = N-pPh-NAc mimetic (DNA dA[PNAc]dA[PNAc]dT[PNAc]dAdCdCdTdGdTdAdT[PNAc]dT[PNAc]dC[PNAc]dCdTdCdGdCdCdT[PNAc]dG[PNAc]dT[PNAc]dC-{Fluorescein})
22.00

---

Test system: factor V mutant sequence
measurement.notes: Melting curve analysis of donor probes, mutant
Assay type: binding
condition: melting temperature of donor probe for factor V mutant sequence; in °C (unit assumed)
Strand notation (5' to 3'): a small letter for the sugar, then the base; units joined by * are phosphorothioate-linked, units joined directly phosphodiester-linked; [ ] holds rarer units or linkages, { } end groups; capitals alone tell only the bases. [PNAc] = P=N-pPh-NAc phosphoramidate mimetic linkage (p1); {Fluorescein} = fluorescein label; d = 2'-deoxy (DNA)
measurement.kind: Tm mt

Give the value of Tm mt reported for the following: 5′ Ap1Ap1Tp1ACCTGTATp1Tp1Cp1CTCGCCTp1Gp1Tp1C-fluorescein-3′: Example 4 fluorescein probe SEQ ID NO: 4, multiply modified; p1 is a P = N-pPh-NAc mimetic (DNA dA[PNAc]dA[PNAc]dT[PNAc]dAdCdCdTdGdTdAdT[PNAc]dT[PNAc]dC[PNAc]dCdTdCdGdCdCdT[PNAc]dG[PNAc]dT[PNAc]dC-{Fluorescein})
52.83

Tell me Tm mt reported for 5′ Ap1ATACCTGTATTCCTCGCCTGTC fluorescein-3′: Example 4 fluorescein probe SEQ ID NO: 4; p1 is a P = N-pPh-NAc mimetic (DNA dA[PNAc]dAdTdAdCdCdTdGdTdAdTdTdCdCdTdCdGdCdCdTdGdTdC-{Fluorescein})
56.80

More entries:
Tell me its Tm mt given 5′ AATACCTGTATTCCTCGCCTGTC-fluorescein-3′ (ref): unmodified fluorescein FRET donor probe SEQ ID NO: 4, used as a reference (DNA dAdAdTdAdCdCdTdGdTdAdTdTdCdCdTdCdGdCdCdTdGdTdC-{Fluorescein}) [reference compound] as the entry.
56.98

---

Test system: factor V mutant sequence
measurement.notes: Melting curve analysis of donor probes, mutant
Type: binding
condition: melting temperature of donor probe for factor V mutant sequence; in °C (unit assumed)
Strand notation (5' to 3'): a small letter for the sugar, then the base; units joined by * are phosphorothioate-linked, units joined directly phosphodiester-linked; [ ] holds rarer units or linkages, { } end groups; capitals alone tell only the bases. [PNAc] = P=N-pPh-NAc phosphoramidate mimetic linkage (p1); {Fluorescein} = fluorescein label; d = 2'-deoxy (DNA)
measurement.kind: Tm mt
# answer = number (no unit)

Answered cases to consult:
Name the recorded Tm mt of the substance listed here: 5′ Ap1Ap1Tp1Ap1Cp1Cp1Tp1Gp1Tp1Ap1Tp1TCCTCGCCTGTC-fluorescein-3′: Example 4 fluorescein probe SEQ ID NO: 4, multiply modified; p1 is a P = N-pPh-NAc mimetic (DNA dA[PNAc]dA[PNAc]dT[PNAc]dA[PNAc]dC[PNAc]dC[PNAc]dT[PNAc]dG[PNAc]dT[PNAc]dA[PNAc]dT[PNAc]dTdCdCdTdCdGdCdCdTdGdTdC-{Fluorescein})
52.19

Tell me its Tm mt given 5′ AATACCTGp1TATTCCTCp1GCCTGTC-fluorescein-3′: Example 4 fluorescein probe SEQ ID NO: 4, two-fold modified; p1 is a P = N-pPh-NAc mimetic (DNA dAdAdTdAdCdCdTdG[PNAc]dTdAdTdTdCdCdTdC[PNAc]dGdCdCdTdGdTdC-{Fluorescein}) as the entry.
55.89

Provide Tm mt value for the following substance: 5′ AATACCTGTATTCCTCGCCTGTp1C fluorescein-3′: Example 4 fluorescein probe SEQ ID NO: 4; p1 is a P = N-pPh-NAc mimetic (DNA dAdAdTdAdCdCdTdGdTdAdTdTdCdCdTdCdGdCdCdTdGdT[PNAc]dC-{Fluorescein})
56.26

# ---- query substance ----
Return Tm mt for the following substance: 5′ AATACCTGTATTp1Cp1Cp1Tp1Cp1Gp1Cp1Cp1Tp1Gp1Tp1C-fluorescein-3′: Example 4 fluorescein probe SEQ ID NO: 4, multiply modified; p1 is a P = N-pPh-NAc mimetic (DNA dAdAdTdAdCdCdTdGdTdAdTdT[PNAc]dC[PNAc]dC[PNAc]dT[PNAc]dC[PNAc]dG[PNAc]dC[PNAc]dC[PNAc]dT[PNAc]dG[PNAc]dT[PNAc]dC-{Fluorescein})
52.14

---

Tested on: factor V wild type sequence
measurement.notes: Melting curve analysis of donor probes, wild type
Format: binding
condition: melting temperature of donor probe for factor V wild type sequence; in °C (unit assumed)
Strand notation (5' to 3'): a small letter for the sugar, then the base; units joined by * are phosphorothioate-linked, units joined directly phosphodiester-linked; [ ] holds rarer units or linkages, { } end groups; capitals alone tell only the bases. [PNAc] = P=N-pPh-NAc phosphoramidate mimetic linkage (p1); {Fluorescein} = fluorescein label; d = 2'-deoxy (DNA)
Tm wt reference
Would you mind answering with just the numeric figure?

Quote Tm wt reported for 5′ AATACCTGTATTCCTCGCCTGTC-fluorescein-3′ (ref): unmodified fluorescein FRET donor probe SEQ ID NO: 4, used as a reference (DNA dAdAdTdAdCdCdTdGdTdAdTdTdCdCdTdCdGdCdCdTdGdTdC-{Fluorescein}) [reference compound] please.
64.92

Quickly give me recorded Tm wt for 5′ Ap1Ap1Tp1Ap1Cp1Cp1Tp1Gp1Tp1Ap1Tp1TCCTCGCCTGTC-fluorescein-3′: Example 4 fluorescein probe SEQ ID NO: 4, multiply modified; p1 is a P = N-pPh-NAc mimetic (DNA dA[PNAc]dA[PNAc]dT[PNAc]dA[PNAc]dC[PNAc]dC[PNAc]dT[PNAc]dG[PNAc]dT[PNAc]dA[PNAc]dT[PNAc]dTdCdCdTdCdGdCdCdTdGdTdC-{Fluorescein})
60.69

Look up and report measured Tm wt for this entry: 5′ Ap1Ap1Tp1ACCTGTATp1Tp1Cp1CTCGCCTp1Gp1Tp1C-fluorescein-3′: Example 4 fluorescein probe SEQ ID NO: 4, multiply modified; p1 is a P = N-pPh-NAc mimetic (DNA dA[PNAc]dA[PNAc]dT[PNAc]dAdCdCdTdGdTdAdT[PNAc]dT[PNAc]dC[PNAc]dCdTdCdGdCdCdT[PNAc]dG[PNAc]dT[PNAc]dC-{Fluorescein})
61.40

State, in one line, measured Tm wt of 5′ AATACCTGTATTCCTCGCCTGTp1C fluorescein-3′: Example 4 fluorescein probe SEQ ID NO: 4; p1 is a P = N-pPh-NAc mimetic (DNA dAdAdTdAdCdCdTdGdTdAdTdTdCdCdTdCdGdCdCdTdGdT[PNAc]dC-{Fluorescein})
64.32

Give Tm wt for the following substance: 5′ Ap1ATACCTGTATTCCTCGCCTGTC fluorescein-3′: Example 4 fluorescein probe SEQ ID NO: 4; p1 is a P = N-pPh-NAc mimetic (DNA dA[PNAc]dAdTdAdCdCdTdGdTdAdTdTdCdCdTdCdGdCdCdTdGdTdC-{Fluorescein})
64.80

// Input: 5′ AATACCTGTATTp1Cp1Cp1Tp1Cp1Gp1Cp1Cp1Tp1Gp1Tp1C-fluorescein-3′: Example 4 fluorescein probe SEQ ID NO: 4, multiply modified; p1 is a P = N-pPh-NAc mimetic (DNA dAdAdTdAdCdCdTdGdTdAdTdT[PNAc]dC[PNAc]dC[PNAc]dT[PNAc]dC[PNAc]dG[PNAc]dC[PNAc]dC[PNAc]dT[PNAc]dG[PNAc]dT[PNAc]dC-{Fluorescein}) . Output its Tm wt only.
60.74

Turning now to a further record.
Look up Tm wt of 5′ AATACCTGp1TATTCCTCp1GCCTGTC-fluorescein-3′: Example 4 fluorescein probe SEQ ID NO: 4, two-fold modified; p1 is a P = N-pPh-NAc mimetic (DNA dAdAdTdAdCdCdTdG[PNAc]dTdAdTdTdCdCdTdC[PNAc]dGdCdCdTdGdTdC-{Fluorescein}) and report it.
64.28
